Data provenance is PubChem BioAssay (EPA / NIEHS).

# Read-out: MYC, MYC (gene 4609)
# measurementDescription: LTEA_HepaRG_MYC: Life Technologies and Expression Analysis (LTEA) Assay for MYC using HepaRG (AID 2283518)
# settings: mRNA level, 48 h; actives raise or lower the signal
Active and inactive are the calls of the source. How the source made its calls: active means hit-call score of the fitted dose curve at least 0.9, where 1 is the maximum; inactive means score below 0.9.
Labels: active, inactive

[[record]]
compound = "c1ccc2occc2c1"
labelclass = "inactive"

[[record]]
compound = "Cc1occc(=O)c1O"
labelclass = "inactive"

[[record]]
compound = "CC(N)=O"
labelclass = "inactive"

[[record]]
compound = "CC(=O)OC1CC(C)OC(C)O1 (stereo not drawn)"
labelclass = "inactive"

[[record]]
compound = "CCCCC(CC)COC(=O)CCCCCCCC(=O)OCC(CC)CCCC (stereo not drawn)"
labelclass = "inactive"

[[record]]
compound = "O=C(N[C@@H](c1ccccc1)[C@@H]1CCCCN1)c1cccc(C(F)(F)F)c1Cl"
labelclass = "active"

[[record]]
compound = "Cc1cc(Cc2ccc(N)c(C)c2)ccc1N"
labelclass = "inactive"

[[record]]
compound = "NC1CCCCC1"
labelclass = "inactive"

[[record]]
compound = "CS(=O)(=O)c1ccc([C@@H](C[C@H]2CCC(=O)C2)C(=O)Nc2cnccn2)cc1Cl"
labelclass = "active"

[[record]]
compound = "N[C@@H](Cc1c[nH]c2ccccc12)C(=O)O"
labelclass = "inactive"

[[record]]
compound = "CC(=O)S[C@H](C(=O)N[C@H]1Cc2ccccc2[C@H]2CCC[C@@H](C(=O)O)N2C1=O)C(C)C"
labelclass = "inactive"

[[record]]
compound = "CSc1ccc(Oc2ccc(S(N)(=O)=O)cc2CN(C)C)cc1C"
labelclass = "inactive"

[[record]]
compound = "CC(COCC(C)OC(=O)c1ccccc1)OC(=O)c1ccccc1 (stereo not drawn)"
labelclass = "inactive"


---

# Read-out: Insulin-like growth factor-binding protein 1 (IGFBP1), IGFBP1 (gene 3484)
# measurementDescription: LTEA_HepaRG_IGFBP1: Life Technologies and Expression Analysis (LTEA) Assay for Insulin-like growth factor-binding protein 1 (IGFBP1) using HepaRG (AID 2283508)
# settings: mRNA level, 48 h; actives raise or lower the signal
Active and inactive are the calls of the source. The calls were made as follows: active = hit-call score of the fitted dose curve at least 0.9, where 1 is the maximum; inactive = score below 0.9.
Labels: yes (active), no (inactive)

[[record]]
compound = "CC(C)NCC(O)c1ccc(O)c(O)c1 (configuration not stated)"
labelclass = "no"

[[record]]
compound = "Cc1c(C)c2c(c(C)c1O)CCC(C)(COc1ccc(CC3SC(=O)NC3=O)cc1)O2 (configuration not stated)"
labelclass = "yes"

[[record]]
compound = "CS(=O)(=O)c1ccc([C@@H](C[C@H]2CCC(=O)C2)C(=O)Nc2cnccn2)cc1Cl"
labelclass = "yes"

[[record]]
compound = "Cn1cnc2c1c(=O)[nH]c(=O)n2C"
labelclass = "no"

[[record]]
compound = "CCCCCCCCCC[N+](C)(C)[O-]"
labelclass = "no"

[[record]]
compound = "C/C=C/C=C/C(=O)O"
labelclass = "no"

[[record]]
compound = "OCC(O)CO"
labelclass = "no"


---

# Read-out: Urokinase-type plasminogen activator receptor (uPAR), PLAUR (gene 5329)
# measurementDescription: BSK_4H_uPAR: BioMAP Diversity Plus: 4H Assay for Urokinase-type plasminogen activator receptor (uPAR) Biomarker Activity (AID 2283030)
# settings: primary human endothelial cells (HUVEC); actives raise or lower the signal
The source made the active and inactive calls. Rule for the calls: active = hit-call score of the fitted dose curve at least 0.9, where 1 is the maximum; inactive = score below 0.9.
outcomeMeasure: AC50

[[record]]
molecule = "CN(C)C(=O)NC1(c2ccccc2)CCN(CCC[C@]2(c3ccc(Cl)c(Cl)c3)CCCN(C(=O)c3ccccc3)C2)CC1"
reportedresult = "inactive"

[[record]]
molecule = "O=[Si]=O"
reportedresult = "inactive"

[[record]]
molecule = "NC1CCCCC1"
reportedresult = "inactive"

[[record]]
molecule = "COc1ccc(OC(F)(F)F)cc1CN[C@H]1CCCN[C@H]1c1ccccc1"
reportedresult = "20 µM (active)"

[[record]]
molecule = "CN(C)CCCN1c2ccccc2Sc2ccc(Cl)cc21"
reportedresult = "12.2 µM (active)"

[[record]]
molecule = "CCCCCCCCCC[N+](C)(C)[O-]"
reportedresult = "inactive"

[[record]]
molecule = "CCCCCCCCCCCCCCOS(=O)(=O)O"
reportedresult = "inactive"

[[record]]
molecule = "C#CC(O)C(CC)CCCC (stereo not drawn)"
reportedresult = "inactive"

[[record]]
molecule = "O=C(O)c1[nH]n(-c2ccc(S(=O)(=O)O)cc2)c(=O)c1N=Nc1ccc(S(=O)(=O)O)cc1"
reportedresult = "inactive"

[[record]]
molecule = "C=CCCCCCCCCCCCC"
reportedresult = "inactive"

[[record]]
molecule = "C/C=C/c1ccc(OC)cc1"
reportedresult = "inactive"

[[record]]
molecule = "O=C1NC(=O)C(c2ccccc2)(c2ccccc2)N1"
reportedresult = "inactive"

[[record]]
molecule = "CCCCCCCCCCCCCCCCO"
reportedresult = "inactive"

